// provenance: the supplement of paper PMC11451515

Listed next: entries and their corresponding cell viability.
Test system: P12-Ichikawa
Assay: cell viability relative to DMSO control; higher = less cytotoxic
Conditions: RPMI 5 mM glucose + 10% dialyzed FBS; 48 h; 0.0632 µM

I would be grateful if you could share the reported cell viability for `N=C(N)Nc1ccc(C(=O)Oc2ccc3cc(C(=N)N)ccc3c2)cc1` .
89.5%

Dear colleague, I am looking for the recorded cell viability of the following compound: CCOCC(O)COc1ccc(NC(=O)CC[S+](C)C)cc1 (stereo not drawn)
82.7%

More entries:
Would you kindly share the measured cell viability for `O=[S+]([O-])(NCCNC/C=C/c1ccc(Br)cc1)c1cccc2cnccc12` ?
99.6%

###

Entries and their cell viability values follow.
Test system: SEM cells
Assay: cell viability relative to DMSO control; higher = less cytotoxic
Conditions: RPMI 5 mM glucose + 10% dialyzed FBS; 48 h; 0.569 µM
State the answer as a number, implicitly in %.

Recorded cell viability for `CN(C)CCOc1ccc(/C(=C(/CCCl)c2ccccc2)c2ccccc2)cc1` , please?
85.8

Data request, read-out cell viability, for `CC[C@@H]1C(=O)N(C)c2cnc(Nc3ccc(C(=O)NC4CCN(C)CC4)cc3OC)nc2N1C1CCCC1`
22.1

Please give the measured cell viability for this compound: `O=C(NCC1CCOCC1)c1cnc(Nc2ccc(Cl)cc2Cl)nc1C(F)(F)F`
113

Could you tell me which cell viability is on file for `C[C@H]1Oc2cc(cnc2N)-c2c(nn(C)c2C#N)CN(C)C(=O)c2ccc(F)cc21` ?
145

Given the compound COC(=O)C/1=C(C)/N/C(=C(\C1C2=CC(=CC=C2)[N+]([O-])=O)C(=O)OCCCN3CCC(CC3)(C4=CC=CC=C4)C5=CC=CC=C5)C (stereo not drawn) , what is its reported cell viability?
101

Others:
Please report the recorded cell viability for `Cc1cnc(Nc2ccc(N3CCN(C)CC3)cc2)nc1Nc1cccc([S+](=O)([O-])NC(C)(C)C)c1` .
97.9

Dear colleague, I am looking for the recorded cell viability of the following compound: CCOCC(O)COc1ccc(NC(=O)CC[S+](C)C)cc1 (stereo not drawn)
95.9

Look at this compound and give its reported cell viability. `C=CC(=O)Nc1ccc2ncnc(Nc3ccc(OCc4cccc(F)c4)c(Cl)c3)c2c1`
93

###

cell viability: recorded values
Tested on: SEM cells
Experiment: cell viability relative to DMSO control; higher = less cytotoxic
Details: RPMI 5 mM glucose + 10% FBS; 48 h; 0.00234 µM
I only need the number, in %, no unit after it.

# annotated cases, reported cell viability shown
Consider the molecule `Cc1ccc(-c2cc(C(F)(F)F)nn2-c2ccc([S+](N)(=O)[O-])cc2)cc1` and give its measured cell viability.
109

For CCOCC(O)COc1ccc(NC(=O)CC[S+](C)C)cc1 (stereo not given) , what is its reported cell viability?
92.1

Continuing:
Could you share which cell viability value was measured for `O=[S+]([O-])(NCCNC/C=C/c1ccc(Br)cc1)c1cccc2cnccc12` ?
119

Fill blank: measured cell viability of the molecule C[C@@H](N)C1CC[C@@H](CC1)C(=O)NC2=CC=NC=C2 (stereo not given in full) is ____.
99.3

Value lookup for cell viability; key = `CC(C)(Sc1ccc(CCN(CCCCC2CCCCC2)C(=O)NC2CCCCC2)cc1)C(=O)O`
108
